- protocol_summary: MM1S myeloma cell viability, profiling panel, resazurin fluorescence, basal, 24 h, PK04 Diversity Set (AID 1174);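 note: MM1S multiple myeloma cell line; test concentration not given here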
- condition_description: higher = more signal, called active from +8 up or from −8 down
Activity calls are given as the source filed them.
For each of the molecules below, state its z-score.

Cc1ccc(N2C(=O)c3ccccc3[C@@H](C(=O)NC3CC3)[C@@H]2c2ccc(CO)cc2)nc1 = 0.584 (inactive)
[N-]=[N+]=Nc1ccccc1[C@H]1OC(c2ccc(OCCCO)cc2)=N[C@@]1(CCS(=O)(=O)c1ccccc1)C(=O)NCC(O)CO (some centres not stated) = -0.0646 (inactive)
CCCC=C(CCC)[C@@H](NC(=O)c1cccs1)c1ccc(C(F)(F)F)cc1 = 0.116 (inactive)
[N-]=[N+]=Nc1ccccc1[C@H]1OC(c2ccc(OCCCO)cc2)=N[C@@]1(CCS(=O)(=O)c1ccccc1)C(N)=O = 0.952 (inactive)
CC(C)C[C@@H]1NC(=O)[C@H](C(C)C)NC(=O)[C@@]23C(=O)N[C@@H](Cc4ccccc4)C2[C@H](C)[C@@]2(C)O[C@H]2C3/C=C/CC/C=C/CNC1=O (some centres not stated) = -0.0691 (inactive)
CO[C@H]1O[C@H](CO)[C@@H](OC(=O)Nc2ccccc2)[C@H](OC(=O)Nc2ccccc2)[C@@H]1OC(=O)Nc1ccccc1 = -1.73 (inactive)

Next molecule, please.
# input molecule: `C=C(CCCC)C(=O)CC[C@@H](OC(=O)c1ccccc1-c1ccccc1C(=O)O)c1ccc(OCCO)cc1` ; wanted: its z-score
-0.276 (inactive)

----------
- protocol_summary: binders of probe aHhip on microarray, primary screen, stem cell growth factor project, biochemical, small-molecule microarray, fluorescence 635/667 (AID 1087);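 note: score merges spot fluorescence at 667nm with spot signal to noise ratio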
- condition_description: higher = more signal
Param threshold (-0.1) applies to composite z-score; output satisfied when value >= threshold, not satisfied when value < threshold.

CN1C(=O)C2C=CC(C(O)C3CC=CCC3)N(N(c3ccccc3)c3ccccc3)C2C1=O (configuration not stated) = not satisfied

Is reported composite z-score greater than or equal to -0.1 here: `C=CCOC(=O)[C@@H]1[C@H]2C(=O)O[C@H](c3ccccc3)[C@H](c3ccccc3)N2[C@H](c2ccc(OCCOC(=O)[C@@H]3C[C@@H]4C(=O)NCC(=O)N4[C@@H]3c3ccc(O)cc3)cc2)[C@@]12C(=O)Nc1ccc(I)cc12`
satisfied

Is reported composite z-score greater than or equal to -0.1 here: `CC(=O)NCCCC[C@@H]1NC(=O)[C@@H]2C[C@H](C(=O)NCCCCCNC(=O)CS)[C@H](c3cccc(OCCO)c3)N2C1=O`
not satisfied

Is reported composite z-score greater than or equal to -0.1 here: `COC(=O)[C@@]1(Cc2ccc(OC)cc2)[C@@H]2C(=CC(=O)[C@H]2CC(=O)C(=O)N2CCCC2)CN1C(=O)c1ccccc1`
satisfied

Is reported composite z-score greater than or equal to -0.1 here: `CC(C)N1C(=O)c2ccccc2[C@](C)(C(=O)NCCN2CCOCC2)[C@@H]1c1ccc(CO)cc1`
not satisfied

Is reported composite z-score greater than or equal to -0.1 here: `COc1ccc([C@H]2OC[C@@H]3C[C@@H](Cc4ccccc4)C(=O)N32)cc1`
satisfied

Is reported composite z-score greater than or equal to -0.1 here: `CN(C)C(=O)[C@@]1(CCS(=O)(=O)c2ccccc2)COC(c2ccc(OCCCO)cc2)=N1`
not satisfied
